Where do these numbers come from? They come from patent US4464383A.

- assay_explanation: Acute toxicity (LD50)
- condition_notes: mouse, in vivo, iv; mice, i.v., 7 days observation; read-out: LD50 i.v.
metric: LD50 at 168 h (mg/kg)

INSERT INTO measurements (line_notation, numeric_readout) VALUES
  ('CCCCCCCCCCCCN1C(C)=CSC1=CC=C(C=Cc1scc(C)[n+]1CCCCCCCCCCCC)c1scc(C)[n+]1CCCCCCCCCCCC', 45.2),
  ('CC1=CSC(=CC=C(C=Cc2scc(C)[n+]2C)c2scc(C)[n+]2C)N1C', 6.25),
  ('CCCCN1C(C)=CSC1=CC=C(C=Cc1scc(C)[n+]1CCCC)c1scc(C)[n+]1CCCC', 8.5),
  ('CCCCCCCCN1C(C)=CS\C1=C/C=C(/C=C/c1scc(C)[n+]1CCCCCCCC)c1scc(C)[n+]1CCCCCCCC', 13.5),
  ('CCCCCCCN1C(C)=CS\C1=C/C=C(/C=C/c1scc(C)[n+]1CCCCCCC)c1scc(C)[n+]1CCCCCCC', 12);

---

- assay_explanation: Acute toxicity (LD50)
- condition_notes: mouse, in vivo, ip; mice, i.p., 7 days observation; read-out: LD50 i.p.
metric: LD50 at 168 h (mg/kg)

INSERT INTO measurements (compound, metric, units_text, numeric_readout) VALUES
  ('CCCCN1C(C)=CSC1=CC=C(C=Cc1scc(C)[n+]1CCCC)c1scc(C)[n+]1CCCC [compound 2]', 'LD50 at 168 h', 'mg/kg', 51),
  ('CCCCCCCCCCCCN1C(C)=CSC1=CC=C(C=Cc1scc(C)[n+]1CCCCCCCCCCCC)c1scc(C)[n+]1CCCCCCCCCCCC [compound 10]', 'LD50 at 168 h', 'mg/kg', 300),
  ('CC1=CSC(=CC=C(C=Cc2scc(C)[n+]2C)c2scc(C)[n+]2C)N1C [compound 1]', 'LD50 at 168 h', 'mg/kg', 23.4),
  ('CCCCCCCN1C(C)=CS\C1=C/C=C(/C=C/c1scc(C)[n+]1CCCCCCC)c1scc(C)[n+]1CCCCCCC', 'LD50 at 168 h', 'mg/kg', 100),
  ('CCCCCCCCN1C(C)=CS\C1=C/C=C(/C=C/c1scc(C)[n+]1CCCCCCCC)c1scc(C)[n+]1CCCCCCCC', 'LD50 at 168 h', 'mg/kg', 120);
